target: recombinant human ULK1 protein (1-649) (Homo sapiens, UniProt O75385); construct: recombinant human ULK1 protein (1-649, SignalChem #U01-11G); purchased SignalChem U01-11G; assay: ULK1 inhibition assay (ADP Glo); assay type: biochemical; conditions: Table 1; 25 uM ATP, MBP substrate, one hour
Sequence (O75385 1-649): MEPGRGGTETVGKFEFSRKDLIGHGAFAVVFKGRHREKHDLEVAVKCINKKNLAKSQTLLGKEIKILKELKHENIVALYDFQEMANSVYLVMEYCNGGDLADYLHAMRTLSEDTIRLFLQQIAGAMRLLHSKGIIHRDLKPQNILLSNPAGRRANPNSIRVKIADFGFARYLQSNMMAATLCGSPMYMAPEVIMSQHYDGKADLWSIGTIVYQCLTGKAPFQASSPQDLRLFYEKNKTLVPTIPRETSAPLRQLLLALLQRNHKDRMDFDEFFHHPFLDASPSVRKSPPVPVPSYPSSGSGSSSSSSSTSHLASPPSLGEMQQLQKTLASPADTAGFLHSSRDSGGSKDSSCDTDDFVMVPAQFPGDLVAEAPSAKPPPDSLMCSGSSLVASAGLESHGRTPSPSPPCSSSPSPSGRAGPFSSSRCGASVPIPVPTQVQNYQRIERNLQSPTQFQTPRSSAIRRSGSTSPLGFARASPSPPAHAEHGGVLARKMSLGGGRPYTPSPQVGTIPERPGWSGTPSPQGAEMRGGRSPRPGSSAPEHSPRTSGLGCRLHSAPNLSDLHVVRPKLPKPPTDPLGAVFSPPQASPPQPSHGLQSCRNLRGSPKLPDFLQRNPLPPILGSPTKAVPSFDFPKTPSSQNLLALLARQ
readout name: IC50

# count of solved cases: 5
CNCC(=O)N1CCc2cc(Nc3ncc(C(F)(F)F)c(NC4CC4)n3)ccc2C1; < 1 nM
CSCCN1CCc2ccc(Nc3ncc(C(F)(F)F)c(NC4CC4)n3)cc2C1; < 1 nM
CNCC(=O)N1CCc2ccc(Nc3ncc(Br)c(Nc4ccccc4C(=O)NC)n3)cc2C1; > 10 nM
CC(C)(O)CN1CCc2cc(Nc3ncc(C(F)(F)F)c(NC4CC4)n3)ccc2C1; < 1 nM
CSCCN1CCc2cc(Nc3ncc(C(F)(F)F)c(NC4CC4)n3)ccc2C1; < 1 nM

Short answer for CS(=O)(=O)CCN1CCc2cc(Nc3ncc(C(F)(F)F)c(NC4CC4)n3)ccc2C1 : IC50 was 1 to 10 nM

Short answer for CNC(=O)c1ccccc1Nc1nc(Nc2ccc3c(c2)CNCC3)ncc1Br : IC50 was > 10 nM

Short answer for CNC(=O)c1ccccc1Oc1nc(Nc2ccc3c(c2)CCN(CCOC)C3)ncc1Cl : IC50 was > 10 nM

Short answer for CN1CCN(C(=O)N2CCc3ccc(Nc4ncc(C(F)(F)F)c(NC5CC5)n4)cc3C2)CC1 : IC50 was 1 to 10 nM

Short answer for CNC(=O)c1ccccc1Nc1nc(Nc2ccc3c(c2)CCN(CC(C)O)C3)ncc1Br (stereo not shown) : IC50 was > 10 nM

Sourced from patent US20230135635A1
